Assign growth inhibition to each entry below.
METHOD: NCI Yeast Anticancer Drug Screen. Data for the rad50 strain (AID 155);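 note: 0% = growth of vehicle-only cultures of the same strain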
COND: S. cerevisiae rad50 strain growth inhibition, hits give high values; at 50.0 µM unless noted
This is part of a sample that, as a whole, favours compounds with a hit. Of some 79,000 tested, about 15% had one in any assay.
# number only, unit % dropped from output

Which growth inhibition value is on record for FC(F)(F)c1ccc2nc(NCc3ccccc3)c(-c3ccccc3)nc2c1 ? 3.85

Quick one: growth inhibition for COC(C(=O)Nc1ccc(C)cc1)(c1ccccc1)c1ccccc1 ? 7.4

Please report the recorded growth inhibition for CC1CCC2C(=O)OC(=O)C2C1 (centres undefined) . 6.2

Suppose we examine the compound c1cc(-c2ncc[nH]2)ccn1 ; what growth inhibition value has been reported? -6.9

Reported growth inhibition for Cc1ccc2[nH]c(C(=O)O)cc2c1 : what is it? 31.1

So what's the measured growth inhibition for this one? O=C(O)c1cccc(C(=O)O)c1-c1c(C(=O)O)cccc1C(=O)O -5.2

GET /values?readout=growth inhibition&item= Cc1c(Cl)cccc1C(=O)O -3.15

Sample [CH3][Sn]([CH3])([S]P(=S)(c1ccccc1)c1ccccc1)[S]P(=S)(c1ccccc1)c1ccccc1 — what was its growth inhibition? 25.1

Need growth inhibition, item O=C(O)/C=C/c1cc(Br)sc1Br -2.05

Request the reported growth inhibition associated with CC1=NCC[N+]1(CCc1ccccc1)Cc1ccccc1 (centres undefined) 3.15

I'd like to know its growth inhibition. The compound in question is CCCCc1cc(C(=O)OC/C(C)=N/NC(N)=O)c2ccccc2n1 -6.7

Param item = BrCC(Br)C1OCCCO1 (centres undefined) ; retrieve measured growth inhibition. 18.4

Fill in the blank: the reported growth inhibition of C=C1CCCC(C)(C)[C@@H]1CC/C(C)=C/Cn1c2cccc(=O)c-2nc2ccccc21 is ____. 12.8

For CN(C)C(=O)OC(Cn1cncn1)(Cn1cncn1)c1ccc(Cl)cc1Cl , what is its reported growth inhibition? -29.8

Would you kindly share the measured growth inhibition for Cc1cc2ccccc2c[n+]1CC(O)C[n+]1cc2ccccc2cc1C ? -18.9

Suppose we examine the compound N#Cc1c(-c2ccc(Cl)cc2)c(-c2ccc(Cl)cc2)nn(CCOC(=O)CCC(=O)OCCn2nc(-c3ccc(Cl)cc3)c(-c3ccc(Cl)cc3)c(C#N)c2=O)c1=O ; what growth inhibition value has been reported? -11.7

Recorded growth inhibition for OC1COC(CCl)OC1C1OC(CCl)OCC1O (centres undefined) , please? 10.2

Data request, read-out growth inhibition, for CC1=C(C(=O)Nc2cc(=O)n(C)c(=O)n2C)C(c2ccco2)C(C(=O)Nc2cc(=O)n(C)c(=O)n2C)=C(C)N1 -0.5

Quick one: growth inhibition of Cc1ccc(C(=O)NNC(=O)c2ccc(C)cc2)cc1 ? -10.5

If you can, please state the reported growth inhibition value of C(/C=C/c1ccccc1)=Nc1ccc(SSc2ccc(N=C/C=C/c3ccccc3)cc2)cc1 . 38.2

# growth inhibition lookup, item COc1ccc(CC(C)NN)cc1 (centres undefined) 93

// returns reported growth inhibition for input Cc1ccnc(NS(=O)(=O)c2ccc(N=[N+]=[N-])cc2)n1 -3.2

Give the measured growth inhibition of Cc1ccc(N=Nc2ccc(C)cc2NC(=O)c2cccc3ccccc23)cc1 . -12.6

Could you share which growth inhibition value was measured for Nc1cncnc1N ? 35.7

FYI, the data here is from PubChem BioAssay (NCI).
